Reference source for all entries: PubChem BioAssay (NCI)

Tested on: OVCAR-4 ovarian
protocol.notes: NCI-60 one-dose screen, 48 h
test.parameters: 10 µM unless noted
About 83,000 compounds went through this panel and 20% of them were active in at least one assay; those are over-represented in the sample as a whole. The source made the active and inactive calls. The calls were made as follows: active = growth percent below 10; inactive = the rest.
Possible outcomes: yes (1) for active, no (0) for inactive

| compound | label.value |
| --- | --- |
| O=C(c1c(F)ccc(NS(=O)(=O)N2CC[C@@H](F)C2)c1F)c1c[nH]c2ncc(-c3cnc(C4CC4)nc3)cc12 | no (0) |
| CC(=O)C(C(C)=O)C(c1ccccc1)C(C(C)=O)C(C)=O | no (0) |
| CC(N)C(Cc1ccccc1)c1ccc(Cl)cc1 (centres undefined) | no (0) |
| CC1CCC(n2cnc3c(Cl)ncnc32)O1 (centres undefined) | no (0) |
| NS(=O)(=O)c1ccc(CCN2C(=O)/C(=C\c3ccc(Cl)cc3)C=C2c2ccc3ccccc3c2)cc1 | no (0) |
| Cc1cc(C2(c3ccc(O)c(C)c3)OS(=O)(=O)c3ccccc32)ccc1O | no (0) |
| NC(=O)N1N=C(c2ccc(Cl)cc2)CC1c1cn(-c2ccccc2)nc1-c1ccc(Cl)cc1 (centres undefined) | no (0) |
| OCCNC(=S)Nc1ccc(-c2nc(N3C[C@H]4CC[C@@H](C3)O4)c3cccn3n2)cc1 | yes (1) |
| COCCN1CCN(Cc2ccc(-c3n[nH]c4c3C(=O)c3c(NC(=O)NN5CCOCC5)cccc3-4)cc2)CC1 | yes (1) |
| COc1ccc(Nc2ncccc2NC(=O)c2cn(Cc3cccc(Oc4ccccc4)c3)nn2)cc1 | no (0) |
| Cc1cc2c(-c3nc4ccccn4c3Nc3cccc4ccccc34)c(O)c(O)cc2c(O)c1-c1c(C)cc2c(-c3nc4ccccn4c3Nc3cccc4ccccc34)c(O)c(O)cc2c1O | no (0) |
| CNC(=O)c1cc(Oc2ccc(NC(=O)Nc3ccc(Cl)c(C(F)(F)F)c3)c(F)c2)ccn1 | yes (1) |
| COc1cc2c(cc1OCCCCCN1CCN(c3ncnc4ccccc34)CC1)N=CC1CCCN1C2=O (centres undefined) | yes (1) |
| CC(N)C(Cc1ccc(Cl)cc1)c1ccc(Cl)cc1 (centres undefined) | no (0) |
| O=C(Cc1ccc(/C=C/C(=O)c2ncc[nH]2)cc1)Nc1ccc(S(F)(F)(F)(F)F)cc1 | no (0) |
| Cn1ccnc1C(=O)/C=C/c1ccc(CC(=O)Nc2ccc(Br)cc2)cc1 | no (0) |
| COC1CCC(N2C(=O)CNc3ncc(-c4ccc(C(C)(C)O)nc4)nc32)CC1 (centres undefined) | yes (1) |
| CO[C@@H](C(=O)N1Cc2[nH]nc(NC(=O)c3ccc(N4CCN(C)CC4)cc3)c2C1)c1ccccc1 | yes (1) |
| Cc1ccc(C(=O)Nc2ccc(CN3CCN(C)CC3)c(C(F)(F)F)c2)cc1C#Cc1cnc2cccnn12 | yes (1) |

====

System: EKVX NSCLC
protocol.notes: NCI-60 one-dose screen, 48 h (100 = growth as untreated, 0 = no growth, -100 = all killed)
test.parameters: 10 µM unless noted
The panel holds about 83,000 compounds, 20% with a hit somewhere; the sample as a whole holds those more often. Active and inactive are the calls of the source. Rule for the calls: active = growth percent below 10; inactive = the rest.
Examples of molecules with documented growth follow.
measured.metric: growth

| molecule | observed |
| --- | --- |
| CC1(COc2ccc3c(c2)ncn3-c2ccc3cccc(N4CCC(N)CC4)c3n2)COC1 | 34.6% (inactive) |
| CC(C)=CCc1cc2c(cc1O)C1=C(C(=O)C3=C(C1=O)S(=O)(=O)CCN3)C(C=C(C)C)O2 (stereo unspecified) | -26.1% (active) |
| COC(=O)[C@]12CC[C@@H](C)[C@H](C)[C@@H]1C1=CC[C@@H]3[C@@]4(C)C[C@@H](OC(=O)/C=C/c5ccccc5)[C@H](O)[C@@](C)(CO)[C@@H]4[C@H](O)C[C@@]3(C)[C@]1(C)CC2 | 33.8% (inactive) |
| COC(=O)[C@H](Cc1ccc(O)cc1)NC(=O)[C@@H](OC)[C@@H]1Cc2cc3cc(OC4CC(OC5CC(O)C(O)C(C)O5)C(O)C(C)O4)c(C)c(O)c3c(O)c2C(=O)[C@H]1OC1CC(OC2CC(OC3CC(C)(O)C(O)C(C)O3)C(O)C(C)O2)C(O)C(C)O1 (stereo partly specified) | 21.5% (inactive) |
| COc1cccc(NC(=O)Nc2ccc(Nc3ncnc4sc5c(c34)CCN(C(=O)CCl)C5)cc2)c1 | 109% (inactive) |
| Cc1cc2c(-c3nc4ccccn4c3NC34CC5CC(CC(C5)C3)C4)c(O)c(O)cc2c(O)c1-c1c(C)cc2c(-c3nc4ccccn4c3NC34CC5CC(CC(C5)C3)C4)c(O)c(O)cc2c1O | 5.97% (active) |
